# System: MALME-3M melanoma
# TEST_SUMMARY: NCI-60 one-dose screen, 48 h (100 = growth as untreated, 0 = no growth, -100 = all killed)
# CONDITION_DESCRIPTION: 10 µM unless noted
# Method: Cells are grown in 96 well plates and exposed to the test compound for 48 hours. Compounds are tested at a single concentration, which is 10^-5 M for most compounds. The reported endpoint is percent growth (GI% or GIPRCNT), where numbers from 0 - 100% represent growth inhibition, and numbers from -100% - 0 represent cell death. For example, a value of 40 represents 60% growth inhibition. A value of 0 means no net growth occurred over the course of the experiment. […]
The panel holds about 83,000 compounds, 20% with a hit somewhere; the sample as a whole holds those more often.
The following molecules are shown together with reported growth values.
Numbers only; they are read as %.

Completed entries (count: 2):
{"SMI": "Cn1cc2c(c1)-c1nc(Nc3ccccc3)ncc1CC2", "growth (%)": 95.3}
{"SMI": "O=c1c2cc(F)ccc2sc2c(NCCN3CCCCC3)nc3ccccc3c12", "growth (%)": 58.5}

// growth value for Cc1cc(NCc2cc(Nc3ccnc4cc(Cl)ccc34)ccc2F)nc(N2CCN(c3ccccc3)CC2)n1 : 84.4
